# Test: Determination of blood concentration in rats after ig administration
# Format: in vivo
# Run parameters: male SD rats, ig 200 mg/kg, plasma; calculated from the experimental results; hydrochloride
Counter-ions that a name gives are not always drawn.
# AUC annotations
Readout: AUC (ng·h/mL)

1. COc1ccc2cc3[n+](cc2c1OC)CCc1cc(O)c(O)cc1-3 [crystal form A, demethyleneberberine hydrochloride] ... 1247
2. COc1ccc2cc3[n+](cc2c1OC)CCc1cc(O)c(O)cc1-3 [crystal form C, demethyleneberberine hydrochloride] ... 1077
3. COc1ccc2cc3[n+](cc2c1OC)CCc1cc(O)c(O)cc1-3 [crystal form B, demethyleneberberine hydrochloride] ... 1150
4. COc1ccc2cc3[n+](cc2c1OC)CCc1cc(O)c(O)cc1-3 [crystal form D, demethyleneberberine hydrochloride] ... 3675

###

# Test: Stability in high-temperature experiment (60±2° C.)
# Assay type: physicochemical
# Run parameters: summary over high temperature, high humidity and strong light irradiation; hydrochloride
# Method: Demethyleneberberine hydrochloride crystals A, B, C and D are taken in an appropriate amount and placed in plates numbered as A1, B1, C1 and D1 respectively, and then the plates are placed in a high-temperature environment at 60±2° C. respectively for stability test.
Counter-ions that a name gives are not always drawn.
Readout: Stability under stability test conditions (summary)

1) COc1ccc2cc3[n+](cc2c1OC)CCc1cc(O)c(O)cc1-3 [crystal form A, demethyleneberberine hydrochloride] ... stable
2) COc1ccc2cc3[n+](cc2c1OC)CCc1cc(O)c(O)cc1-3 [crystal form C, demethyleneberberine hydrochloride] ... stable
3) COc1ccc2cc3[n+](cc2c1OC)CCc1cc(O)c(O)cc1-3 [crystal form B, demethyleneberberine hydrochloride] ... stable

###

# Test: Stability in high-temperature experiment (60±2° C.)
# Assay type: physicochemical
# Run parameters: 60±2° C.; hydrochloride
Counter-ions that a name gives are not always drawn.
Readout: Stability in the high-temperature environment

1. COc1ccc2cc3[n+](cc2c1OC)CCc1cc(O)c(O)cc1-3 [crystal form B, demethyleneberberine hydrochloride] ... relatively stable
2. COc1ccc2cc3[n+](cc2c1OC)CCc1cc(O)c(O)cc1-3 [crystal form A, demethyleneberberine hydrochloride] ... relatively stable
3. COc1ccc2cc3[n+](cc2c1OC)CCc1cc(O)c(O)cc1-3 [crystal form C, demethyleneberberine hydrochloride] ... relatively stable

###

# Test: Stability in strong light irradiation experiment (4,500 lx±500 lx)
# Type: physicochemical
# Run parameters: hydrochloride
Structures can show the parent of a compound that is named as a salt.
Readout: Stability in the strong light irradiation environment

1. COc1ccc2cc3[n+](cc2c1OC)CCc1cc(O)c(O)cc1-3 [crystal form C, demethyleneberberine hydrochloride] ... relatively stable
2. COc1ccc2cc3[n+](cc2c1OC)CCc1cc(O)c(O)cc1-3 [crystal form B, demethyleneberberine hydrochloride] ... relatively stable
3. COc1ccc2cc3[n+](cc2c1OC)CCc1cc(O)c(O)cc1-3 [crystal form A, demethyleneberberine hydrochloride] ... relatively stable

###

# Test: Determination of blood concentration in rats after ig administration
# Type: in vivo
# Run parameters: male, SD, rat, plasma, po, 200 mg/kg, ig 200 mg/kg, read-out: tmax
Counter-ions that a name gives are not always drawn.
Readout: tmax (h)

1. COc1ccc2cc3[n+](cc2c1OC)CCc1cc(O)c(O)cc1-3 [crystal form B, demethyleneberberine hydrochloride] ... 1

###

# Test: Stability in high-humidity experiment (RH90±5%)
# Assay type: physicochemical
# Run parameters: day 10
# Description: Demethyleneberberine hydrochloride crystals A, B, C and D are taken in an appropriate amount and placed in plates numbered as A2, B2, C2 and D2 respectively, and then the plates are placed in a high-humidity environment at RH90±5% respectively for stability test.
Counter-ions that a name gives are not always drawn.
Readout: X-Ray Powder Diffraction

1. COc1ccc2cc3[n+](cc2c1OC)CCc1cc(O)c(O)cc1-3 [crystal form B, demethyleneberberine hydrochloride] ... Unchanged
2. COc1ccc2cc3[n+](cc2c1OC)CCc1cc(O)c(O)cc1-3 [crystal form D, demethyleneberberine hydrochloride] ... Unchanged
3. COc1ccc2cc3[n+](cc2c1OC)CCc1cc(O)c(O)cc1-3 [crystal form A, demethyleneberberine hydrochloride] ... Unchanged
4. COc1ccc2cc3[n+](cc2c1OC)CCc1cc(O)c(O)cc1-3 [crystal form C, demethyleneberberine hydrochloride] ... Unchanged
